From: the supplement of paper PMC3334620

Kindly supply the reported PBM E-score values for the records listed here.
Target: Gcr1 (UniProt P07261)
Sequence: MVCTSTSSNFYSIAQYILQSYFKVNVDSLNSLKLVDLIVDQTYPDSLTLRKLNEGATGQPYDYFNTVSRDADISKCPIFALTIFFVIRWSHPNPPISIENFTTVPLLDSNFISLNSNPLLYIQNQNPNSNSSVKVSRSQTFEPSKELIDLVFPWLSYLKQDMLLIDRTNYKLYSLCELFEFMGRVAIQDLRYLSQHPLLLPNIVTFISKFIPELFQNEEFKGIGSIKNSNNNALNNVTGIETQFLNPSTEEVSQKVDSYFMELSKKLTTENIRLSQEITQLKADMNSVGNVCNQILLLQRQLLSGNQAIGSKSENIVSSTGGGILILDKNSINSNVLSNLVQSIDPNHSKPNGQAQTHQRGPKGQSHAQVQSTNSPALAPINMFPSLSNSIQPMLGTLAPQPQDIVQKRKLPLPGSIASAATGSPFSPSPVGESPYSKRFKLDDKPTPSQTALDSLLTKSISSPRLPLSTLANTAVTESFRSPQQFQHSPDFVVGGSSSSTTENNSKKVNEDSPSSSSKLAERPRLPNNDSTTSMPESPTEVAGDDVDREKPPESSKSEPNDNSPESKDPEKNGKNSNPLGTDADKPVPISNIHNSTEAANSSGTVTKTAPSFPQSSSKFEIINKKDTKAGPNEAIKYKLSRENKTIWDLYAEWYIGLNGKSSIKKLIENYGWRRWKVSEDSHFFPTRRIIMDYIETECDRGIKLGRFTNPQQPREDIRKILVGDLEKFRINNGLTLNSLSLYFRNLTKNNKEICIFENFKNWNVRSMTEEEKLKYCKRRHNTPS
Experiment: PBM E-score (8-mer binding enrichment) (E-score (-0.5 to 0.5)); higher = stronger / more preferred TF binding
Conditions: protein concentration: 100 nM; construct: GST-full length
Over roughly 33,000 sequences, “E-score (-0.5 to 0.5)” has its median near -0.011; the highest 2% begin near 0.28. The entries come from a sample that favours the highest values as a whole.
Numbers only.

>  <sequence-string>
AGGAAGTC

>  <PBM E-score>
0.337

$$$$

Fill in PBM E-score for each of the 6 sequences listed.
1. GGGTGATA
2. AACTGGCA
3. GCTCGAGC
4. CCTCGAGC
5. GCACCACC
6. ACTCTTCT

OUTPUT:
1. 0.0068
2. 0.0707
3. 0.321
4. -0.102
5. -0.0802
6. 0.0323

Fill in PBM E-score for each of the 7 sequences listed.
1. CGGTGCAC
2. CTCTCGCA
3. CGGAATCC
4. GAAGGGAC
5. CGGAATTC
6. ACGACGGG
7. GGGGGCGA

OUTPUT:
1: -0.105; 2: 0.0115; 3: 0.417; 4: -0.279; 5: 0.242; 6: 0.00739; 7: -0.0875

---

Molecular target: Gcr1 (UniProt P07261)
Sequence: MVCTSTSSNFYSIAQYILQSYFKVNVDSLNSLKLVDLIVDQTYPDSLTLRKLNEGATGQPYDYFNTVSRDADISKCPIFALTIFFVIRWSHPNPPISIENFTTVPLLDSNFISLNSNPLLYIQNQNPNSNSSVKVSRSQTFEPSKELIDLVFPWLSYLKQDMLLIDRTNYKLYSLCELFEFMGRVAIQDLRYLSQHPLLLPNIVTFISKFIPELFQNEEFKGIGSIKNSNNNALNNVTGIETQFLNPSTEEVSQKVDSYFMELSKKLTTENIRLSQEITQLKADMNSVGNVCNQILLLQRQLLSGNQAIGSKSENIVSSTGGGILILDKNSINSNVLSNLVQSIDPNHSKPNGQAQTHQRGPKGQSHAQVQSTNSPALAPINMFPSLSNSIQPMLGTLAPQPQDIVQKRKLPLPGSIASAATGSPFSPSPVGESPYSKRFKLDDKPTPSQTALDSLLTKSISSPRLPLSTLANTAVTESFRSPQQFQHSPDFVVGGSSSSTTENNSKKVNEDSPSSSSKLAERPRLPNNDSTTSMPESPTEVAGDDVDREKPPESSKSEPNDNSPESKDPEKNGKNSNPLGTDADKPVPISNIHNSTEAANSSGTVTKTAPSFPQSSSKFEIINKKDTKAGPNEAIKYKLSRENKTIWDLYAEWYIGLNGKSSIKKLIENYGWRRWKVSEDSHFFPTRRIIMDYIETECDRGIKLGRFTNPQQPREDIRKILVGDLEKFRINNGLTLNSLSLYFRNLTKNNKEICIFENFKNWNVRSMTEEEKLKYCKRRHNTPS
Assay: PBM E-score (8-mer binding enrichment) (E-score (-0.5 to 0.5)); higher = stronger / more preferred TF binding
Conditions: protein concentration: 100 nM; construct: GST-full length
Over roughly 33,000 sequences, “E-score (-0.5 to 0.5)” has its median near -0.011; the highest 2% begin near 0.28. The entries come from a sample that favours the highest values as a whole.
Kindly supply the reported PBM E-score values for the records listed here.

>  <sequence-string>
CTGGCTTC

>  <PBM E-score>
0.362

$$$$
>  <sequence-string>
CCCACGAG

>  <PBM E-score>
-0.0381

$$$$
>  <sequence-string>
GATATTGC

>  <PBM E-score>
0.00295

$$$$
>  <sequence-string>
CTGGCTTA

>  <PBM E-score>
-0.159

$$$$
>  <sequence-string>
GAACCCAA

>  <PBM E-score>
0.167

$$$$
>  <sequence-string>
GAACCCCA

>  <PBM E-score>
0.344

$$$$
>  <sequence-string>
GGAACCTA

>  <PBM E-score>
0.401

$$$$
>  <sequence-string>
ACCGCCTC

>  <PBM E-score>
-0.14

$$$$
>  <sequence-string>
AGCGTCTG

>  <PBM E-score>
0.175

$$$$
>  <sequence-string>
ATAATTGC

>  <PBM E-score>
-0.00448

$$$$

Fill in PBM E-score for each of the 5 sequences listed.
1. GGGACCCA
2. CGGCGTCA
3. AGCGTCTA
4. CGCGTCTA
5. CCCGGGAC

OUTPUT:
1. 0.303
2. 0.0965
3. 0.307
4. 0.137
5. 0.21
